Source listed as ChEMBL document CHEMBL4689842.

Each item that follows carries a reported Population Hoechst High Intensity Objects (%).
System: U2OS
assay.remarks: Multiplex assay against U2OS
Format: toxicity, cell-based
condition.set: human, 12 h, 1 µM, compound concentration 1 uM, replicate 1
assay.endpoint: Population Hoechst High Intensity Objects (%)

molecule	quantitative.result
CCc1nn(CCCN2CCN(c3cccc(Cl)c3)CC2)c(=O)n1CCOc1ccccc1.Cl [NEFAZODONE HYDROCHLORIDE]	9
C[C@]12CC[C@@H]3c4ccc(O)cc4CC[C@H]3[C@@H]1CC[C@@H]2O	7
CC(C)OC(=O)N1CCC(Oc2ncnc3c2cnn3-c2ccc(S(C)(=O)=O)cc2F)CC1	6
O=C(c1cc2c(cc1F)OC(c1ccc(F)cc1)(c1ccc(Cl)cc1Cl)O2)N1CCOCC1 (centres undefined)	10

----------
System: Fibroblast
assay.remarks: Multiplex assay against human fibroblast
Format: toxicity, cell-based
condition.set: 24 h, 1 µM, compound concentration 1 uM, replicate 2
Binarize Total Cell Count at 70; below is true, at or above is false.

molecule	label.class
COc1cc2ncn(-c3cc(OCc4ccccc4C(F)(F)F)c(C(N)=O)s3)c2cc1OC [GW843682X]	false
CC1=C(C(=O)Nc2cc3cn[nH]c3cc2F)C(c2ccc(C(F)(F)F)cc2)CC(=O)N1 (configuration not stated)	false
Cc1ccccc1C(c1ccccc1C)N1C2CCC1CC(O)(c1ccccc1)C2 (configuration not stated)	false
Cl.O=C(O)c1cc(-c2ccc(C3CCNCC3)cc2)c2ccc(-c3ccc(C(F)(F)F)cc3)cc2c1	true
Cc1cccc(CN2CCN(C(c3ccccc3)c3ccc(Cl)cc3)CC2)c1.Cl.Cl (configuration not stated)	true
CC(C)CC(=O)Nc1[nH]nc2c1CN(C(=O)C1CCN(C)CC1)C2(C)C	true

----------
Tested on: HEK-293T
assay.remarks: Multiplex assay against HEK293T
Format: toxicity, cell-based
condition.set: human, 24 h, 1 µM, compound concentration 1 uM, replicate 1
Form field: Population Pyknosed Nuclei (%) (one value per entry).

compound	system.tested	Population Pyknosed Nuclei (%)
CNC(=O)Nc1ccc(-c2nc(N3CC4CCC(C3)O4)c3cnn(C4CCC5(CC4)OCCO5)c3n2)cc1	HEK-293T	61
C=CC(=O)Nc1cccc(Sc2nc(Nc3ccc(N4CCN(C)CC4)cc3)ncc2Cl)c1	HEK-293T	39
CC(C)CC(=O)Nc1[nH]nc2c1CN(C(=O)C1CCN(C)CC1)C2(C)C [PHA-793887]	HEK-293T	9
CCc1nn(CCCN2CCN(c3cccc(Cl)c3)CC2)c(=O)n1CCOc1ccccc1.Cl [NEFAZODONE HYDROCHLORIDE]	HEK-293T	34

----------
Tested on: HEK-293T
assay.remarks: Multiplex assay against HEK293T
Format: toxicity, cell-based
condition.set: human, 12 h, 1 µM, compound concentration 1 uM, replicate 1
Reported Population Healthy Nuclei (%) by item:

compound	Population Healthy Nuclei (%)
O=c1[nH]c2ccccc2n1C1CCN(Cc2ccc(-c3[nH]c4cc5ncnc5cc4nc3-c3ccccc3)cc2)CC1	69
O=C(c1cc2c(cc1F)OC(c1ccc(F)cc1)(c1ccc(Cl)cc1Cl)O2)N1CCOCC1 (centres undefined)	37
C[C@]12CC[C@@H]3c4ccc(O)cc4CC[C@H]3[C@@H]1CC[C@@H]2O	45
CCCSc1nc(N[C@@H]2C[C@H]2c2ccc(F)c(F)c2)c2nnn([C@@H]3C[C@H](OCCO)[C@@H](O)[C@H]3O)c2n1	35
